Target: UniProt:P14416
Sequence (P14416 whole entry): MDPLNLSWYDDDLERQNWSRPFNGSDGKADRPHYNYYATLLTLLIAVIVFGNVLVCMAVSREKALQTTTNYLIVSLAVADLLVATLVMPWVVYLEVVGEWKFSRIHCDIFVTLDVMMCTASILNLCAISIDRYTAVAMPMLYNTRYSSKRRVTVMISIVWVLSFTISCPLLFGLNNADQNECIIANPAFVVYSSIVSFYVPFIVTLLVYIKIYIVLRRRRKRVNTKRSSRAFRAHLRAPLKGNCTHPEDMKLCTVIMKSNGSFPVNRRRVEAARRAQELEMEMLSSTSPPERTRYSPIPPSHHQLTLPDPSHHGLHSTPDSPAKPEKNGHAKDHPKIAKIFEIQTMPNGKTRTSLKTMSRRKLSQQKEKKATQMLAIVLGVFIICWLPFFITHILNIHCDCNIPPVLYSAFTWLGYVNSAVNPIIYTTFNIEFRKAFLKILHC
Assay: Inhibitory activity against [125I]- NCQ298 binding to dopamine receptor D2 in Sf 9 cells
pKi: −log10 of the molar value.
outcome.measure: pKi

INSERT INTO assay_data (compound, readout_value) VALUES
  ('CCCN(C/C=C/I)C1CCc2cccc(O)c2C1 (racemic)', 5.97);

* * *

Biological target: D(3) dopamine receptor (Rattus norvegicus)
Sequence (P19020 whole entry): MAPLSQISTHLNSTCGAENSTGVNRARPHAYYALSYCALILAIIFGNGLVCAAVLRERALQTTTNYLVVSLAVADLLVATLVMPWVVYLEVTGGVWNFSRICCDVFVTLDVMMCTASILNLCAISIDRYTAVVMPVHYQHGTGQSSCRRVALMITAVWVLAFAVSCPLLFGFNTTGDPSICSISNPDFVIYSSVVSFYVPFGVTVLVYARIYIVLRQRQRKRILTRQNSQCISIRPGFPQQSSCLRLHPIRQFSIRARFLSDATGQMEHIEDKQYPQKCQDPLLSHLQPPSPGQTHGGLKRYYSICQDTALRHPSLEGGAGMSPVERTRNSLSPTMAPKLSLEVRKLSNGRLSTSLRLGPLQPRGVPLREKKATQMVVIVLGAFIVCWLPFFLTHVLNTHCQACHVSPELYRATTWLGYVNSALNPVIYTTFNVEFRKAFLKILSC
Experiment: Inhibitory activity against [125I]- NCQ298 binding to dopamine receptor D3 in Sf 9 cells
outcome.measure: Ki (µM)

INSERT INTO measurements (molecule, outcome_measure, units_of_measure, readout_value) VALUES
  ('CCCN(CCC)C1CCc2cccc(O)c2C1 (racemic)', 'Ki', 'µM', 0.251),
  ('CCCN(C/C=C/I)C1CCc2cccc(O)c2C1 (racemic)', 'Ki', 'µM', 0.125);
